Target: PPARα (Homo sapiens)
Sequence (Q07869 whole entry): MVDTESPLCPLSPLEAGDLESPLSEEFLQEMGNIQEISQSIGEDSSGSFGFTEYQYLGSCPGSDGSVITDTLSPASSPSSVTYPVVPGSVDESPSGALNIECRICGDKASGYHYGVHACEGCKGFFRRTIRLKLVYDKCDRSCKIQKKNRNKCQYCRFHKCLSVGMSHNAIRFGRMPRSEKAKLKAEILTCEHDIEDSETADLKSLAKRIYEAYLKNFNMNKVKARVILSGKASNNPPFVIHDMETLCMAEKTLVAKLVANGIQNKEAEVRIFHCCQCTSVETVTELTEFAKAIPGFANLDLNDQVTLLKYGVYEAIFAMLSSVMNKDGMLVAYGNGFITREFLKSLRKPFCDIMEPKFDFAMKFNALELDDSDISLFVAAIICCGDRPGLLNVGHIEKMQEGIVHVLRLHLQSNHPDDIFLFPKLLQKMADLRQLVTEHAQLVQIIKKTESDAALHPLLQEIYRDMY
Assay: In vitro activation of PPARα (cells containing PPAR, EC50)
Details: n ≥ 8; 24 h; read-out: EC50 ± SD PPARα
pEC50: −log10 of the molar value.
propertyMeasured: pEC50

1) O=C1NC(=O)C(Cc2ccc(OCCNC(=O)c3ccccn3)cc2)S1 (stereo not shown): 4.89
2) Cc1ccc(C(=O)NCCOc2ccc(CC3SC(=O)NC3=O)nc2)nc1 (stereo not shown): 4.98
3) O=C1NC(=O)C(Cc2ccc(OCCNC(=O)c3ccccc3)cn2)S1 (stereo not shown): 4.89
4) O=C1NC(=O)C(Cc2ccc(OCCNC(=O)c3ccc(O)cn3)cn2)S1 (stereo not shown): 5.03

====

Assay: Lipid–water partition coefficient (log p)
Assay type: physicochemical
propertyMeasured: logP

1) O=C1NC(=O)C(Cc2ccc(OCCNC(=O)c3ccccn3)cc2)S1 (stereo not drawn): 1.92

a = Cc1ccc(C(=O)NCCOc2ccc(CC3SC(=O)NC3=O)nc2)nc1 (stereo not drawn)
b = O=C1NC(=O)C(Cc2ccc(OCCNC(=O)c3ccccn3)cn2)S1 (stereo not drawn)
QUERY: Which is greater in logP, the first item a or the second item b ? Respond using the label that marks the chosen record.
RESULT: a
(a: 2.01, b: 1.38)

P = O=C1NC(=O)C(Cc2ccc(OCCNC(=O)c3ccc(O)cn3)cc2)S1 (stereo not drawn)
Q = O=C1NC(=O)C(Cc2ccc(OCCNC(=O)c3ccc(O)cn3)cn2)S1 (stereo not drawn)
QUERY: Dear colleague, could you let me know whether P or Q has the lower recorded logP? Thanks. Respond using the label that marks the chosen record.
RESULT: Q

====

Each item that follows carries a reported Blood glucose levels 2 h.
Test system: healthy mice
Assay: Insulin tolerance test (blood glucose under insulin load)
Format: in vivo
Conditions: 10 mg kg^−1 d^−1 for 15 d, 2 h after s.c. insulin 0.2 μg kg^−1
All answers are understood in mmol/L, so give the number only.

1. Cc1ccc(C(=O)NCCOc2ccc(CC3SC(=O)NC3=O)cc2)cc1 (centres unmarked) [Compound 6e]: 2.463
2. Cc1ccc(C(=O)NCCOc2ccc(CC3SC(=O)NC3=O)nc2)cc1 (centres unmarked) [Compound 6f]: 2.602
3. Cc1ccc(C(=O)NCCOc2ccc(CC3SC(=O)NC3=O)cc2)nc1 (centres unmarked) [Compound 6g]: 2.566
4. O=C1NC(=O)C(Cc2ccc(OCCNC(=O)c3ccccc3)cc2)S1 (centres unmarked) [Compound 6a]: 2.498

Pending compound:
QUERY: What value of measured Blood glucose levels 2 h is listed for O=C1NC(=O)C(Cc2ccc(OCCNC(=O)c3ccc(O)cc3)cc2)S1 (centres unmarked) [Compound 6i] ?
RESULT: 2.501

====

System: healthy mice
Experiment: Oral glucose tolerance test
Type: in vivo
Conditions: 10 mg kg^−1 d^−1 oral for 10 d, 1 h after sugar load
propertyMeasured: Blood glucose levels 1 h (mmol/L)
All answers are understood in mmol/L, so give the number only.

Solved cases (3 shown):
1) Cc1ccc(C(=O)NCCOc2ccc(CC3SC(=O)NC3=O)cc2)cc1 (stereo not drawn): 6.003
2) Cc1ccc(C(=O)NCCOc2ccc(CC3SC(=O)NC3=O)cc2)nc1 (stereo not drawn): 6.445
3) O=C1NC(=O)C(Cc2ccc(OCCNC(=O)c3ccc(O)cc3)cc2)S1 (stereo not drawn): 6.401

QUERY: Return Blood glucose levels 1 h measured with healthy mice given this compound: Cc1ccc(C(=O)NCCOc2ccc(CC3SC(=O)NC3=O)nc2)cc1 (stereo not drawn)
RESULT: 6.651

QUERY: Return Blood glucose levels 1 h measured with healthy mice given this compound: O=C1NC(=O)C(Cc2ccc(OCCNC(=O)c3ccccc3)cc2)S1 (stereo not drawn)
RESULT: 6.342

QUERY: Return Blood glucose levels 1 h measured with healthy mice given this compound: CN(CCOc1ccc(CC2SC(=O)NC2=O)cc1)c1ccccn1 (stereo not drawn) [Rosiglitazone, reference compound]
RESULT: 6.351

====

Experiment: Dissociation degree (pKa)
Assay type: physicochemical
propertyMeasured: pKa

1) O=C1NC(=O)C(Cc2ccc(OCCNC(=O)c3ccccn3)cn2)S1 (stereo not drawn): 9.78
2) O=C1NC(=O)C(Cc2ccc(OCCNC(=O)c3ccc(O)cn3)cn2)S1 (stereo not drawn): 8.58
3) O=C1NC(=O)C(Cc2ccc(OCCNC(=O)c3ccccc3)cn2)S1 (stereo not drawn): 10.4

====

Test system: HUVEC cells
Test: Cell survival experiment (cytotoxicity)
Assay type: cell-based
Details: HUVEC cells, 10^−4 mol l^−1
Each item that follows carries a reported Cell survival rate.
All answers are understood in %, so give the number only.

Solved cases (3 shown):
1. Cc1ccc(C(=O)NCCOc2ccc(CC3SC(=O)NC3=O)cc2)cc1 (centres unmarked): 100
2. O=C1NC(=O)C(Cc2ccc(OCCNC(=O)c3ccccc3)cc2)S1 (centres unmarked): 99.3
3. Cc1ccc(C(=O)NCCOc2ccc(CC3SC(=O)NC3=O)nc2)cc1 (centres unmarked): 99.2

QUERY: Return Cell survival rate measured with HUVEC cells given this compound: Cc1ccc(C(=O)NCCOc2ccc(CC3SC(=O)NC3=O)cc2)nc1 (centres unmarked)
RESULT: 99.8

QUERY: Return Cell survival rate measured with HUVEC cells given this compound: O=C1NC(=O)C(Cc2ccc(OCCNC(=O)c3ccc(O)cc3)cc2)S1 (centres unmarked)
RESULT: 99.9

====

Assay: Dissociation degree (pKa)
Format: physicochemical
propertyMeasured: pKa

1) Cc1ccc(C(=O)NCCOc2ccc(CC3SC(=O)NC3=O)nc2)nc1 (stereo not drawn): 9.41
2) Cc1ccc(C(=O)NCCOc2ccc(CC3SC(=O)NC3=O)cc2)nc1 (stereo not drawn): 9.45
3) O=C1NC(=O)C(Cc2ccc(OCCNC(=O)c3ccc(O)cn3)cc2)S1 (stereo not drawn): 8.66
4) O=C1NC(=O)C(Cc2ccc(OCCNC(=O)c3ccccn3)cc2)S1 (stereo not drawn): 10
5) O=C1NC(=O)C(Cc2ccc(OCCNC(=O)c3ccc(O)cc3)cc2)S1 (stereo not drawn): 9.03
6) O=C1NC(=O)C(Cc2ccc(OCCNC(=O)c3ccc(O)cc3)cn2)S1 (stereo not drawn): 9.01
7) Cc1ccc(C(=O)NCCOc2ccc(CC3SC(=O)NC3=O)cc2)cc1 (stereo not drawn): 9.77
8) O=C1NC(=O)C(Cc2ccc(OCCNC(=O)c3ccccc3)cc2)S1 (stereo not drawn): 10.4
9) Cc1ccc(C(=O)NCCOc2ccc(CC3SC(=O)NC3=O)nc2)cc1 (stereo not drawn): 9.65

====

System: HUVEC cells
Assay: Cell survival experiment (cytotoxicity)
Assay type: cell-based
Settings: HUVEC cells, 10^−2 mol l^−1
propertyMeasured: Cell survival rate (%)
All answers are understood in %, so give the number only.

QUERY: Return Cell survival rate measured with HUVEC cells given this compound: Cc1ccc(C(=O)NCCOc2ccc(CC3SC(=O)NC3=O)cc2)nc1 (centres unmarked) [Compound 6g]
RESULT: 90.5

QUERY: Return Cell survival rate measured with HUVEC cells given this compound: O=C1NC(=O)C(Cc2ccc(OCCNC(=O)c3ccc(O)cc3)cc2)S1 (centres unmarked) [Compound 6i]
RESULT: 92.1

QUERY: Return Cell survival rate measured with HUVEC cells given this compound: O=C1NC(=O)C(Cc2ccc(OCCNC(=O)c3ccccc3)cc2)S1 (centres unmarked) [Compound 6a]
RESULT: 93.1

QUERY: Return Cell survival rate measured with HUVEC cells given this compound: Cc1ccc(C(=O)NCCOc2ccc(CC3SC(=O)NC3=O)cc2)cc1 (centres unmarked) [Compound 6e]
RESULT: 94.3

QUERY: Return Cell survival rate measured with HUVEC cells given this compound: Cc1ccc(C(=O)NCCOc2ccc(CC3SC(=O)NC3=O)nc2)cc1 (centres unmarked) [Compound 6f]
RESULT: 89.6

====

Each item that follows carries a reported LD50 ± SD.
Test: Acute toxicity test (LD50)
Assay type: in vivo
Conditions: oral administration; n ≥ 3
All answers are understood in mg/kg, so give the number only.

1) CN(CCOc1ccc(CC2SC(=O)NC2=O)cc1)c1ccccn1 (stereo not drawn) [Rosiglitazone, reference compound]: 2246.1
2) O=C1NC(=O)C(Cc2ccc(OCCNC(=O)c3ccccc3)cc2)S1 (stereo not drawn) [Compound 6a]: 2313.6
3) Cc1ccc(C(=O)NCCOc2ccc(CC3SC(=O)NC3=O)cc2)cc1 (stereo not drawn) [Compound 6e]: 2451.2
4) Cc1ccc(C(=O)NCCOc2ccc(CC3SC(=O)NC3=O)cc2)nc1 (stereo not drawn) [Compound 6g]: 2138.8
5) Cc1ccc(C(=O)NCCOc2ccc(CC3SC(=O)NC3=O)nc2)cc1 (stereo not drawn) [Compound 6f]: 2013.6

QUERY: What value of measured LD50 ± SD is listed for O=C1NC(=O)C(Cc2ccc(OCCNC(=O)c3ccc(O)cc3)cc2)S1 (stereo not drawn) [Compound 6i] ?
RESULT: 2268.9

====

Target: PPARγ (Homo sapiens)
Sequence (P37231 1-505): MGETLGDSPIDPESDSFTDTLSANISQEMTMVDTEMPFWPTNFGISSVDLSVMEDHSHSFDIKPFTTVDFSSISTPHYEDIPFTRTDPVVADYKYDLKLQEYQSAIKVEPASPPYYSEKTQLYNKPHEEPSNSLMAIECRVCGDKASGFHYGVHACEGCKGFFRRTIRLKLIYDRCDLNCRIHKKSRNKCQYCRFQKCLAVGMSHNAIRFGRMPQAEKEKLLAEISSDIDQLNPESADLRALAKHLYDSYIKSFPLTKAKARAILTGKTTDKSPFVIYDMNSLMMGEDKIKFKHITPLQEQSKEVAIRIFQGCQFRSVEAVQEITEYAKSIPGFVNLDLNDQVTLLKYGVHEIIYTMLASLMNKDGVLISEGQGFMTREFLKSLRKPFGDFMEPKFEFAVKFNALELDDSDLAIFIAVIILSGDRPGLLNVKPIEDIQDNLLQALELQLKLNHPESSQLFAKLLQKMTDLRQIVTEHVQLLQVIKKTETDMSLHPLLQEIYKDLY
Experiment: In vitro activation of PPARγ (cells containing PPAR, EC50)
Details: n ≥ 8; 24 h; read-out: EC50 ± SD PPARγ
propertyMeasured: EC50 (nM)

1. Cc1ccc(C(=O)NCCOc2ccc(CC3SC(=O)NC3=O)nc2)nc1 (stereo not drawn) [Compound 6h]: 280

I = O=C1NC(=O)C(Cc2ccc(OCCNC(=O)c3ccc(O)cn3)cc2)S1 (stereo not drawn) [Compound 6k]
II = O=C1NC(=O)C(Cc2ccc(OCCNC(=O)c3ccccc3)cn2)S1 (stereo not drawn) [Compound 6b]
III = O=C1NC(=O)C(Cc2ccc(OCCNC(=O)c3ccccn3)cn2)S1 (stereo not drawn) [Compound 6d]
QUERY: Parameters: sort_field (EC50), sort_dir (desc). Answer by listing the labels in the order asked for.
RESULT: III, II, I
(III: 3220 nM, II: 1290 nM, I: 210 nM)

1 = O=C1NC(=O)C(Cc2ccc(OCCNC(=O)c3ccc(O)cn3)cn2)S1 (stereo not drawn) [Compound 6l]
2 = O=C1NC(=O)C(Cc2ccc(OCCNC(=O)c3ccccn3)cc2)S1 (stereo not drawn) [Compound 6c]
QUERY: Dear colleague, could you let me know whether 1 or 2 has the lower recorded EC50? Thanks. Respond using the label that marks the chosen record.
RESULT: 2
